- Tested on: OVCAR3 cells
- Measurement protocol: MTT proliferation assay, OVCAR3;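 further: compound given as an 8- or 10-point series, one day after plating, with exposure covering roughly 3-4 cell doublings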
- Assay type: cell-based
- Reported conditions: 5 days compound exposure, 1:3 serial dilution starting at 10 μM
*1 amine or outer side, *2 acyl side, *3 side chain or, on linkers, in order; H or OH if unused. Where a SMILES comes first, the peptide text is derived from it. Bridges are numbered along the chain shown (N, C = ends). [ ]: non-standard residue; d: D form. The star is where a group is joined. X177 = CN([C@@H](Cc1cc(F)ccc1C1=CC2CCC(C1)N2)C(=O)[*:2])[*:1]; X183 = CN([C@@H](Cc1cc(Cl)ccc1-c1ccc2nncn2c1)C(=O)[*:2])[*:1]; NMehhhLys(Me) = CN([C@@H](CCCCCCCN(C)[*:3])C(=O)[*:2])[*:1]; X109 = CN([C@@H](Cc1cc(Cl)ccc1-c1ccncc1)C(=O)[*:2])[*:1]; X96 = CN([C@@H](Cc1cc(Cl)cc2ccn(C)c12)C(=O)[*:2])[*:1]; cBuCO(3,3-F2-1-CF3) = O=C(C1(C(F)(F)F)CC(F)(F)C1)*; Pro(trans-4-F) = O=C(O)[C@@H]1C[C@@H](F)CN1; Gly(cPr) = N[C@H](C(=O)O)C1CC1
Kindly apply the following: true if GI50 is less than 0.2 µM, false in every other case.

*Q* Criterion: GI50 strictly below 0.2 µM. Is it met by "CC(C)C[C@@H]1NC(=O)[C@@H](N(C)C(=O)[C@@H](NC(=O)[C@@H]2C[C@@H](F)CN2C(=O)C2(C(F)(F)F)CC(F)(F)C2)C2CC2)CC=CCCCCN(C)C(=O)[C@H](Cc2cc(F)ccc2-c2cnn(C)c2)N(C)C1=O" ?
*A* true

*Q* In plain terms, does CC(C)C[C@@H]1NC(=O)[C@@H](N(C)C(=O)[C@@H](NC(=O)[C@@H]2C[C@@H](F)CN2C(=O)C2(C(F)(F)F)CC(F)(F)C2)C2CC2)CCCCCCCN(C)C(=O)[C@H](Cc2cc(Cl)ccc2-c2ccc3nncn3c2)N(C)C1=O [Example 178] ({cBuCO(3,3-F2-1-CF3)}-[Pro(trans-4-F)][Gly(cPr)][NMehhhLys(Me)]L[X183]; lactam 3-C) come in under 0.2 µM for GI50?
*A* false

*Q* Hi there! Is GI50 for CC(C)C[C@@H]1NC(=O)[C@@H](N(C)C(=O)[C@@H](NC(=O)[C@@H]2C[C@@H](F)CN2C(=O)C2(C(F)(F)F)CC(F)(F)C2)C2CC2)CCCCCCCN(C)C(=O)[C@H](Cc2cc(Cl)cc3ccn(C)c23)N(C)C1=O [Example 392] ({cBuCO(3,3-F2-1-CF3)}-[Pro(trans-4-F)][Gly(cPr)][NMehhhLys(Me)]L[X96]; lactam 3-C) below 0.2 µM, do you know?
*A* true

*Q* is_below(GI50, 0.2 µM) for "CC(C)C[C@@H]1NC(=O)[C@@H](N(C)C(=O)[C@@H](NC(=O)[C@@H]2C[C@@H](F)CN2C(=O)C2(C(F)(F)F)CCC2)C2CC2)CC=CCCCCN(C)C(=O)[C@H](Cc2cc(F)ccc2-c2cnn(C)c2)N(C)C1=O" ?
*A* true

*Q* Determine if CC(C)C[C@@H]1NC(=O)[C@@H](N(C)C(=O)[C@@H](NC(=O)[C@@H]2C[C@@H](F)CN2C(=O)C2(C(F)(F)F)CC2)C2CC2)CC=CCCCCNC(=O)[C@H](Cc2cc(Cl)ccc2Cl)N(C)C1=O (single isomer, unassigned) [Example 5-P1] shows GI50 strictly lower than 0.2 µM.
*A* false

*Q* Does CC(C)C[C@@H]1NC(=O)[C@@H](N(C)C(=O)[C@@H](NC(=O)[C@@H]2C[C@@H](F)CN2C(=O)C2(C(F)(F)F)CC(F)(F)C2)C2CC2)CCCCCCCN(C)C(=O)[C@H](Cc2cc(Cl)ccc2-c2ccncc2)N(C)C1=O [Example 192] ({cBuCO(3,3-F2-1-CF3)}-[Pro(trans-4-F)][Gly(cPr)][NMehhhLys(Me)]L[X109]; lactam 3-C) have GI50 strictly under 0.2 µM?
*A* true

*Q* Bench note: check whether CC(C)C[C@@H]1NC(=O)[C@@H](N(C)C(=O)[C@@H](NC(=O)[C@@H]2C[C@@H](F)CN2C(=O)C2(C(F)(F)F)CC(F)(F)C2)C2CC2)CCCCCCCN(C)C(=O)[C@H](Cc2cc(F)ccc2C2=CC3CCC(C2)N3)N(C)C1=O (stereo partly drawn) [Example 165] ({cBuCO(3,3-F2-1-CF3)}-[Pro(trans-4-F)][Gly(cPr)][NMehhhLys(Me)]L[X177]; lactam 3-C) shows GI50 below 0.2 µM
*A* false

----------
- Tested on: NCI-H1048 cells
- Measurement protocol: MTT proliferation assay, NCI-H1048;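 further: Dose-response in 96-well plates over 8 or 10 concentration points, with exposure spanning 3-4 cell doublings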
- Type: cell-based
- Reported conditions: 5 days compound exposure, 1:3 serial dilution starting at 10 μM
*1 amine or outer side, *2 acyl side, *3 side chain or, on linkers, in order; H or OH if unused. Where a SMILES comes first, the peptide text is derived from it. Bridges are numbered along the chain shown (N, C = ends). [ ]: non-standard residue; d: D form. The star is where a group is joined. X146 = CC(C)C(=O)N1[C@@H]2CC[C@H]1C=C(c1ccc(Cl)cc1C[C@@H](C(=O)[*:2])N(C)[*:1])C2; X56 = CN1CCc2cc(-c3ccc(Cl)cc3C[C@@H](C(=O)[*:2])N(C)[*:1])ccc2C1; NMehhhLys(Me) = CN([C@@H](CCCCCCCN(C)[*:3])C(=O)[*:2])[*:1]; NMe(hhhLys) = CN([C@@H](CCCCCCCN[*:3])C(=O)[*:2])[*:1]; cBuCO(3,3-F2-1-CF3) = O=C(C1(C(F)(F)F)CC(F)(F)C1)*; Pro(trans-4-F) = O=C(O)[C@@H]1C[C@@H](F)CN1; Gly(cPr) = N[C@H](C(=O)O)C1CC1
Value type: GI50 (µM)
Hi! Could you send only the number? It should be in µM, unit omitted.

*Q* Under NCI-H1048 cells: GI50 value of "CC(C)C[C@@H]1NC(=O)[C@@H](N(C)C(=O)[C@@H](NC(=O)[C@@H]2C[C@@H](F)CN2C(=O)C2(C(F)(F)F)CC(F)(F)C2)C2CC2)CC=CCCCCN(C)C(=O)[C@H](Cc2cc(F)ccc2-c2cnn(S(C)(=O)=O)c2)N(C)C1=O" ?
*A* 0.05

*Q* Lab note: need GI50 with NCI-H1048 cells for entry CC(C)C[C@@H]1NC(=O)[C@@H](N(C)C(=O)[C@@H](NC(=O)[C@@H]2C[C@@H](F)CN2C(=O)C2(C(F)(F)F)CC(F)(F)C2)C2CC2)CCCCCCCNC(=O)[C@H](Cc2cc(Cl)ccc2C2=C[C@@H]3CC[C@H](C2)N3C(=O)C(C)C)N(C)C1=O [Example 312] ({cBuCO(3,3-F2-1-CF3)}-[Pro(trans-4-F)][Gly(cPr)][NMe(hhhLys)]L[X146]; lactam 3-C) , please look it up.
*A* 0.02

*Q* // fetch NCI-H1048 cells GI50 for CC(C)C[C@@H]1NC(=O)[C@@H](N(C)C(=O)[C@@H](NC(=O)[C@@H]2C[C@@H](F)CN2C(=O)C2(C(F)(F)F)CC(F)(F)C2)C2CC2)CCCCCCCN(C)C(=O)[C@H](Cc2cc(Cl)ccc2-c2ccc3c(c2)CCN(C)C3)N(C)C1=O [Example 407] ({cBuCO(3,3-F2-1-CF3)}-[Pro(trans-4-F)][Gly(cPr)][NMehhhLys(Me)]L[X56]; lactam 3-C)
*A* 0.01
